System: SARS-CoV-2
Assay: SARS-CoV-2 cytopathic effect (CPE) inhibition assay in Vero E6 cells (XTT)
Type: cell-based
Details: Severe acute respiratory syndrome coronavirus 2, Vero C1008, read-out: IC50 (anti-SARS-CoV-2 activity, Figure 8)
reported_metric: IC50 (µM)
Numbers only, in µM.

Example results:
- compound: "C=C(C)[C@@H]1CCC(C)=C[C@H]1c1c(O)cc(CCCCC)c2c1OCN(CCCC(=O)O)C2"
  unit_spec: "µM"
  IC50: 11
- compound: "CCCCCc1c(CN(CC)CC)c(O)c(C/C=C(\\C)CCC=C(C)C)c(O)c1CN(CC)CC [Compound 21b]"
  unit_spec: "µM"
  IC50: 12

Now consider a different compound.
IN: Recorded IC50 for C=C(C)[C@@H]1CCC(C)=C[C@H]1c1c(O)cc(CCCCC)c2c1OCN(Cc1ccccc1)C2 with SARS-CoV-2, please?
OUT: 9
